# inhibition annotations
molecular target: Virion infectivity factor (Human immunodeficiency virus type 1 group M subtype B (isolate BH10)) + Virion infectivity factor (Human immunodeficiency virus type 1 group M subtype B (isolate BRU/LAI)) + Virion infectivity factor (Human immunodeficiency virus type 1 group M subtype B (isolate PCV12)) + Virion infectivity factor (Human immunodeficiency virus type 1 group M subtype B (isolate HXB2)) + DNA dC->dU-editing enzyme APOBEC-3G (Homo sapiens) (UniProt P69720+P69721+P69722+P69723+Q9HC16); assay: inhibitors of Vif binding to APOBEC3G peptide, primary screen, biochemical, TR-FRET, GST-Vif 1-94, biotin-A3G peptide, dose response retest (AID 1117319); conditions: stronger effect = higher value;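 also: Vif residues 1-94 fused to GST binding biotinylated APOBEC3G peptide 110-148; 0% = full assay without inhibitor and 100% = GST in place of GST-Vif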
Out of some 260,000 compounds screened, about 1,500 (0.58%) were called active. Roughly 5% stayed inconclusive and do not appear here. These entries were drawn from the full list. Potency and affinity values are given separately.

{"columns": ["COMPOUND", "inhibition [%]"],
 "data": [
  ["Cc1cccc(S(=O)(=O)c2c(C)cc(C)nc2Cl)c1", -4.17],
  ["Cc1ccc(-c2nnc3n2CCCCC3)cc1", 32.1],
  ["COc1cccc(CNC(=O)CCc2nc3cc(S(=O)(=O)N4CCOCC4)ccc3n2C)c1", -1.52],
  ["Nc1cc(=O)nc(SCC(=O)NC2CCCCC2)n1-c1ccccc1", -0.99],
  ["CCOc1cc(C(=O)Nc2ccc(N3CCOCC3)cc2)cc(Br)c1OC", 12.9],
  ["COc1cc(NC(=O)COc2ccc(Cl)cc2)ccc1NC(=O)C(C)C", 1.28],
  ["COc1ccc(NS(=O)(=O)c2cccc(C(=O)NCC3CCCO3)c2)cc1 (stereo not drawn)", 1.68],
  ["C1CCc2nnc(-c3nnc4n3CCCCC4)n2CC1", -7.36],
  ["COCCCNC(=S)Nc1ccc2nc3n(c(=O)c2c1)CCCCC3", -4.36],
  ["O=C(Nc1ccc(Cl)cc1)c1cncs1", -5.16],
  ["CCCN1CCc2c(sc(NC(=O)CCS(=O)(=O)c3ccccc3)c2C(N)=O)C1", 0.13],
  ["Cn1cccc1/C=C1\\SC(=O)N(c2ccc(O)cc2)C1=O", 4.46],
  ["CC1=C(C(N)=O)C(c2cccs2)n2nc(-c3cccc(C)c3)nc2N1 (stereo not drawn)", 10.3],
  ["COc1cc(N=C2C(=O)N3c4c(cccc42)C(C)=CC3(C)C)cc(OC)c1", -3.94],
  ["Cc1n[nH]c(C)c1S(=O)(=O)N(C)Cc1ccco1", 0],
  ["Cc1ccc(-c2ccc(=O)n(CCC(=O)N3CCN(c4cccc(C)c4)C(C)C3)n2)cc1 (stereo not drawn)", 1.97],
  ["C=CCn1c(COc2ccc(Cl)cc2)nnc1SCc1ccc(C#N)cc1", -5.86],
  ["COC(=O)C(C)(C)ONC(=O)Nc1ccccc1Br", 23.3],
  ["Cc1ccc(C(=O)CCC(=O)Nc2ccc(C)cn2)cc1", -9.87],
  ["O=C1S/C(=C\\c2cccs2)C(=O)N1c1ccc(O)cc1", -10.4],
  ["CCCc1nc(SCC(=O)N2CCCC2)c2ccccc2n1", -0.12],
  ["O=C(O)c1ccc(N2C(=O)/C(=C/C=C/c3ccccc3)SC2=S)cc1", 7.15],
  ["CCOC(=O)c1ccc(NC(=O)C(=O)NCc2ccncc2)cc1", 27]
]}

Attribution: PubChem BioAssay AID1117319
